Experiment: subacute toxicity during a treatment of 5 weeks (mortality, median survival time)
Type: in vivo, rat
Details: in vivo, po, 77 umol/kg; 5 weeks, daily dose 77 μmole/kg rat orally; read-out: mortality (of all animals)
assayReadout: mortality at 840 h

compound="CCCCCCCCCCCCCCCCCCOP(=O)([O-])OCC[N+](C)(C)C [octadecylphosphocholine, reference compound]" testresult=80%
